Listed compounds paired with reported IC50
- Tested on: SK-MEL-28
- ASSAY_PROTOCOL: Cytotoxicity against human SK-MEL-28 cells after 72 hrs by MTT assay
- Type: functional, cell-based
- CONDITIONS_USED: SK-MEL-28, 72 h

Here is how some compounds turned out for IC50.
INSERT INTO assay_data (compound, outcome_measure, endpoint_result) VALUES
  ('C=C(C)[C@@H]1CC=C(CO)CC1 [PERILLYL ALCOHOL]', 'IC50', '> 1000 µM'),
  ('O=C(c1ccccc1)c1sc(N2CCCC2)nc1Cl', 'IC50', '98 µM'),
  ('N#Cc1sc(N2CCCCC2)nc1Br', 'IC50', '> 100 µM');

Challenge: Given the entry `O=C(c1ccccc1)c1sc(N2CCCCC2)nc1Br` , report its measured IC50.
Response given: 91 µM

Challenge: Given the entry `COC(=O)c1sc2nc(N3CCCC3)sc2c1C` , report its measured IC50.
Response given: > 100 µM

Challenge: Given the entry `CC(=O)c1sc(N2CCOCC2)nc1Cl` , report its measured IC50.
Response given: > 100 µM

---

- ASSAY_PROTOCOL: Inhibition of Na+/K+-ATPase in guinea pig whole brain homogenate preincubated for 10 mins measured after 30 mins
- Assay type: tissue-based, Cavia porcellus
OUTCOME_MEASURE: pIC50
Note on units: pIC50 is unitless, being -log10 of a concentration expressed in mol/L.

Challenge: Given the entry `O=C(c1ccccc1)c1sc(N2CCCCC2)nc1Br` , report its measured pIC50.
Response given: 3.46

---

Listed molecules paired with reported inhibition at 72 h, up to 300 µM
- ASSAY_PROTOCOL: Growth inhibition of NMRI mouse astrocytes at 30 to 300 uM after 72 hrs by MTT assay
- Format: cell-based, Astrocyte
- CONDITIONS_USED: read-out: GI

INSERT INTO measurements (compound_structure_string, endpoint_result) VALUES
  ('O=C(c1ccccc1)c1sc(N2CCCCC2)nc1Cl', '< 50%');

Then this molecule:
Challenge: Given the entry `O=C(c1ccccc1)c1sc(N2CCCCC2)nc1Br` , report its measured inhibition at 72 h, up to 300 µM.
Response given: < 50%

---

- ASSAY_PROTOCOL: Inhibition of guinea pig kidney Na+/K+-ATPase alpha1 preincubated for 10 mins measured after 30 mins
- Design: species or system Cavia porcellus
OUTCOME_MEASURE: pIC50
Note on units: pIC50 is unitless, being -log10 of a concentration expressed in mol/L.

Challenge: Given the entry `O=C(c1ccccc1)c1sc(N2CCCCC2)nc1Br` , report its measured pIC50.
Response given: 3.26

---

- System: MCF7
- ASSAY_PROTOCOL: Cytotoxicity against human MCF7 cells after 72 hrs by MTT assay
- Format: functional, cell-based
- CONDITIONS_USED: MCF7, 72 h
OUTCOME_MEASURE: pIC50
Note on units: pIC50 is unitless, being -log10 of a concentration expressed in mol/L.

Here is how some molecules turned out for pIC50.
INSERT INTO measurements (compound_structure_string, target_of_assay, outcome_measure, endpoint_result) VALUES
  ('O=C(c1ccccc1)c1sc(N2CCCCC2)nc1Cl', 'MCF7', 'pIC50', 4.25),
  ('O=C(c1ccccc1)c1sc(N2CCOCC2)nc1Cl', 'MCF7', 'pIC50', 4.15),
  ('CSc1nc(Br)c(C(=O)c2ccccc2)s1', 'MCF7', 'pIC50', 4.17),
  ('COC(=O)c1sc2nc(N3CCOCC3)sc2c1C', 'MCF7', 'pIC50', 4.11),
  ('CC(=O)c1sc(N2CCOCC2)nc1Cl', 'MCF7', 'pIC50', 4.06);

Then this molecule:
Challenge: Given the entry `CSc1nc(Cl)c(C(=O)c2ccccc2)s1` , report its measured pIC50.
Response given: 4.04

---

Listed compounds paired with reported IC50
- ASSAY_PROTOCOL: Cytotoxicity against human U373 cells after 72 hrs by MTT assay
- Format: functional, cell-based, U-373MG ATCC
- CONDITIONS_USED: U373 MG
Value expressed in µM; do not type the unit.

Here is how some compounds turned out for IC50.
INSERT INTO assay_data (compound_structure_string, endpoint_result) VALUES
  ('CC(=O)c1sc(N2CCOCC2)nc1Cl', 83),
  ('O=C(c1ccccc1)c1sc(N2CCOCC2)nc1Cl', 92);

Challenge: Given the entry `COC(=O)c1sc2nc(N3CCCC3)sc2c1C` , report its measured IC50.
Response given: 89

---

- ASSAY_PROTOCOL: Inhibition of Na+/K+-ATPase in guinea pig kidney homogenate preincubated for 10 mins measured after 30 mins
- Assay type: tissue-based, Cavia porcellus
OUTCOME_MEASURE: pIC50
Note on units: pIC50 is unitless, being -log10 of a concentration expressed in mol/L.

Challenge: Given the entry `O=C(c1ccccc1)c1sc(N2CCCCC2)nc1Br` , report its measured pIC50.
Response given: 3.26

---

- ASSAY_PROTOCOL: Cytotoxicity against human U373 cells after 72 hrs by MTT assay
- Format: functional, cell-based, U-373MG ATCC
- CONDITIONS_USED: U373 MG
OUTCOME_MEASURE: pIC50
Note on units: pIC50 is unitless, being -log10 of a concentration expressed in mol/L.

Here is how some compounds turned out for pIC50.
INSERT INTO measurements (compound_structure_string, endpoint_result) VALUES
  ('O=C(c1ccccc1)c1sc(N2CCCCC2)nc1Br', 4.11),
  ('O=C(c1ccccc1)c1sc(N2CCCC2)nc1Cl', 4.09),
  ('O=C(c1ccccc1)c1sc(N2CCCCC2)nc1Cl', 4.02),
  ('CSc1nc(Br)c(C(=O)c2ccccc2)s1', 4.05);

Challenge: Given the entry `COC(=O)c1sc2nc(SC)sc2c1C` , report its measured pIC50.
Response given: 4.04

---

- ASSAY_PROTOCOL: Inhibition of guinea pig brain Na+/K+-ATPase alpha2 preincubated for 10 mins measured after 30 mins
- Parameters: species or system Cavia porcellus
OUTCOME_MEASURE: IC50

Challenge: Given the entry `O=C(c1ccccc1)c1sc(N2CCCCC2)nc1Br` , report its measured IC50.
Response given: 250 µM

---

- Test system: PC-3
- ASSAY_PROTOCOL: Cytotoxicity against human PC3 cells after 72 hrs by MTT assay
- Assay type: functional, cell-based
- CONDITIONS_USED: PC-3, 72 h
OUTCOME_MEASURE: IC50

INSERT INTO assay_data (compound_structure_string, target_of_assay, endpoint_result) VALUES
  ('CSc1nc(Br)c(C(=O)c2ccccc2)s1', 'PC-3', '> 100 µM'),
  ('C=C(C)[C@@H]1CC=C(CO)CC1', 'PC-3', '> 1000 µM'),
  ('N#Cc1sc(N2CCCCC2)nc1Br', 'PC-3', '> 100 µM');

Then this compound:
Challenge: # returns recorded IC50 (system: PC-3) for `CCOC(=O)c1sc(N2CCCC2)nc1Cl`
Response given: 78 µM

---

- Tested on: PC-3
- ASSAY_PROTOCOL: Cytotoxicity against human PC3 cells after 72 hrs by MTT assay
- Type: functional, cell-based
- CONDITIONS_USED: PC-3, 72 h
pIC50: −log10 of the molar value.
OUTCOME_MEASURE: pIC50

Here is how some compounds turned out for pIC50.
INSERT INTO assay_data (compound_structure_string, target_of_assay, endpoint_result) VALUES
  ('COC(=O)c1sc2nc(SC)sc2c1C', 'PC-3', 4.05),
  ('O=C(c1ccccc1)c1sc(N2CCCC2)nc1Br', 'PC-3', '< 4.00'),
  ('O=C(c1ccccc1)c1sc(N2CCCCC2)nc1Cl', 'PC-3', 4.16),
  ('CC(=O)c1sc(N2CCOCC2)nc1Cl', 'PC-3', '< 4.00'),
  ('COC(=O)c1sc2nc(N3CCCCC3)sc2c1C', 'PC-3', 4.03),
  ('N#Cc1sc(N2CCCC2)nc1Cl', 'PC-3', '< 4.00'),
  ('CSc1nc(Cl)c(C(=O)c2ccccc2)s1', 'PC-3', '< 4.00'),
  ('COC(=O)c1sc2nc(N3CCCC3)sc2c1C', 'PC-3', '< 4.00'),
  ('O=C(c1ccccc1)c1sc(N2CCCCC2)nc1Br', 'PC-3', 4.21),
  ('O=C(c1ccccc1)c1sc(N2CCOCC2)nc1Br', 'PC-3', '< 4.00');

Challenge: Given the entry `O=C(c1ccccc1)c1sc(N2CCCC2)nc1Cl` , report its measured pIC50.
Response given: < 4.00

Challenge: Given the entry `COC(=O)c1sc2nc(N3CCOCC3)sc2c1C` , report its measured pIC50.
Response given: < 4.00

Challenge: Given the entry `O=C(c1ccccc1)c1sc(N2CCOCC2)nc1Cl` , report its measured pIC50.
Response given: < 4.00
